The reported numbers originate from paper PMC9324693.

The entries below come with measured pEC50 values attached.
Tested on: hTERT-RPE1
Test: MTT cell viability assay on non-tumorigenic hTERT-RPE1 cells
Assay type: cell-based
Settings: 96-well plates, 4000 cells/well; viability after 3 days by MTT; mean ± SD of three independent experiments
pEC50: −log10 of the molar value.

>  <Compound>
O=C1c2ccccc2C(OCCOCCOCCOCCO)N1CCCC(=C(c1ccc(O)cc1)c1ccc(O)cc1)[c-]1cccc1.[Fe+2].c1cc[cH-]c1 (stereo not shown)

>  <Value modifier>
=

>  <pEC50>
4.61

$$$$
>  <Compound>
O=C1c2ccccc2C(CCO)N1CCCC(=C(c1ccc(O)cc1)c1ccc(O)cc1)[c-]1cccc1.[Fe+2].c1cc[cH-]c1 (stereo not shown)

>  <Value modifier>
=

>  <pEC50>
5.30

$$$$
>  <Compound>
O=C1c2ccccc2C(=O)N1CCCC[c-]1cccc1.[Fe+2].c1cc[cH-]c1 [Compound 3h, N-(4-ferrocenylbutyl) Phthalimide]

>  <Value modifier>
<

>  <pEC50>
4.30

$$$$
>  <Compound>
C#CCCCC1c2ccccc2C(=O)N1CCCC(=C(c1ccc(O)cc1)c1ccc(O)cc1)[c-]1cccc1.[Fe+2].c1cc[cH-]c1 (stereo not shown)

>  <Value modifier>
=

>  <pEC50>
4.89

$$$$
